All values here come from ChEMBL document CHEMBL1201862.

Each entry below lists one item and its recorded GI50 value.
Tested on: EKVX
run.description: NCI tumour cell line growth inhibition, 48 h
Calls of active or inactive are those of the source. No stated cut-off is given here; in the data, active = GI50 up to about 1.1 µM and inactive = higher.

# compound, target.or.system, GI50
data = [
    ("N=C(N)N/N=C/c1c(-c2cc([N+](=O)[O-])c(Cl)cc2Cl)nc2n1CCS2", "EKVX", "40.9 µM (inactive)"),
    ("CC1(C)CC(=O)C(=CNc2nc(-c3ccc(Br)cc3)cs2)C(=O)C1", "EKVX", "38.7 µM (inactive)"),
    ("CC(=O)OC1CC2CCN3C(=O)c4cc5c(cc4[C@H](C1OC(C)=O)C23)OCO5 (stereo not given in full)", "EKVX", "> 100 µM (inactive)"),
    ("CCOC(=O)C(NC(=O)c1ccccc1)(N1CCN(c2cc3c(cc2F)c(=O)c(C(=O)O)cn3C2CC2)CC1)C(F)(F)F (stereo not given)", "EKVX", "24.9 µM (inactive)"),
    ("COc1ccc2[nH]cc(CCNC(=O)[C@](O)(Cc3cn(C)c4ccccc34)[C@@]3(O)OCC(O)C3O)c2c1 (stereo not given in full)", "EKVX", "> 100 µM (inactive)"),
    ("CN(Cc1cnc2nc(N)nc(N)c2n1)c1ccc(C(=O)NCCS(=O)(=O)O)cc1", "EKVX", "> 100 µM (inactive)"),
    ("O=[N+]([O-])c1ccc(Cl)c(C2CC(c3cccc4ccccc34)=Nc3ccccc3S2)c1 (stereo not given)", "EKVX", "70.8 µM (inactive)"),
    ("CCn1c(C)nc([N+](=O)[O-])c1Sc1ncc[nH]1", "EKVX", "75.7 µM (inactive)"),
    ("CCc1n[nH]c(=O)n1/N=C/c1c(O)ccc2ccccc12", "EKVX", "> 100 µM (inactive)"),
    ("CC1=C(Nc2c(C)cc(O)cc2O)C(=O)C=c2oc3c(c21)C(C)=C(Nc1c(C)cc(O)cc1O)C(=O)C=3", "EKVX", "47.5 µM (inactive)"),
    ("COc1ccc(SCc2cc(OC)c(OC)c(OC)c2)cc1OC", "EKVX", "43.4 µM (inactive)"),
    ("COC(=O)c1ccc(C=C(C#N)C#N)cc1", "EKVX", "33.8 µM (inactive)"),
    ("CC1CCC2C(C)C3C(CC4C5CC=C6CC(OC7OC(CO)C(O)C(OC8OC(CO)C(O)C(O)C8O)C7OC7OC(C)C(O)C(O)C7O)CCC6(C)C5CCC43C)N2C1 (stereo not given)", "EKVX", "9.27 µM (inactive)"),
    ("O=C(/C=C1\\NC(=O)c2ccccc2N1)c1ccncc1", "EKVX", "> 100 µM (inactive)"),
    ("COc1ccc(C(=O)C(c2ccc(OCc3ccccc3)cc2)c2ccc(OCc3ccccc3)cc2)cc1", "EKVX", "> 100 µM (inactive)"),
    ("CC1=C(O)C(=O)C[C@]2(C)[C@H]3CC=C4[C@@H]5CC(C)(C)CC[C@@H]5C(=O)[C@H](O)[C@@]4(C)[C@]3(C)CC[C@@H]12", "EKVX", "> 50 µM (inactive)"),
    ("O=C(Cc1ccc(F)cc1)NC1=C(Cl)C(=O)c2ccccc2C1=O", "EKVX", "3.65 µM (inactive)"),
    ("O=c1[nH]c2[nH]c(-c3ccc(Br)cc3)cc2c2ccccc12", "EKVX", "5.58 µM (inactive)"),
    ("COc1ccc(C=C2C(=O)NC(=S)NC2=O)c2ccccc12", "EKVX", "82 µM (inactive)"),
    ("CN(C)C(=O)N1N[C@H](c2ccccc2)[C@@H]1c1ccccc1", "EKVX", "> 100 µM (inactive)"),
    ("CC(=N\\c1ccncc1)/C(C)=N/c1ccncc1", "EKVX", "20.7 µM (inactive)"),
    ("CC[C@]1(O)C(=O)OCc2c1cc1n(c2=O)Cc2cc3c(N)cccc3nc2-1", "EKVX", "> 100 µM (inactive)"),
    ("COc1cc2c(c(O)c1O)-c1ccc(OC)c(=O)cc1C(NC(C)=O)CC2 (stereo not given)", "EKVX", "39 µM (inactive)"),
    ("OC(C1CO1)C(O)C1CO1 (stereo not given)", "EKVX", "90.4 µM (inactive)"),
    ("Cc1ccc2c(=O)c(-c3nnc(NC4CCCCC4)s3)c[nH]c2n1", "EKVX", "> 100 µM (inactive)"),
    ("FC(F)(F)c1cc(N(C2c3ccccc3C=Cc3ccccc32)P(Cl)Cl)cc(C(F)(F)F)c1", "EKVX", "17.1 µM (inactive)"),
    ("C(=C\\c1c2oc(-c3ccccc3)cc(-c3ccccc3)c-2c2ccccc12)/C=C1\\c2ccccc2-c2c(-c3ccccc3)cc(-c3ccccc3)[o+]c21.[O-][Cl+3]([O-])([O-])[O-]", "EKVX", "> 100 µM (inactive)"),
    ("CCOc1ccc(NC(=O)/C(=C/c2ccccc2)C(C)=O)cc1", "EKVX", "17.8 µM (inactive)"),
    ("CN(C(=O)Cc1cc(Cl)c(Cl)cc1NC(=O)CN)[C@H]1CCCC[C@@H]1N1CCCC1", "EKVX", "> 100 µM (inactive)"),
    ("O=C(Nc1ccc(Cl)cc1)c1cc2c(cc1Cl)Sc1nccn1S2(=O)=O", "EKVX", "69 µM (inactive)"),
    ("Cc1cc(Cc2c(F)c(F)c(C(c3cc(C)no3)c3c(F)c(F)c(F)c(F)c3F)c(F)c2F)on1 (stereo not given)", "EKVX", "> 100 µM (inactive)"),
    ("O=C=NCCCCCCN1C(=O)N2C(c3ccccc3)N(CCCCCCN=C=O)C(=O)N2C1c1ccccc1 (stereo not given)", "EKVX", "> 100 µM (inactive)"),
    ("S=C1CCSc2c(ccc3ccccc23)N1", "EKVX", "77.6 µM (inactive)"),
    ("Cn1c2ccccc2c2c(-c3ccccc3)[n+]3ccccc3nc21", "EKVX", "36.1 µM (inactive)"),
    ("CC(SC(=S)N1CCOCC1)c1cc2oc(=O)n(C)c2cc1Cl (stereo not given)", "EKVX", "> 100 µM (inactive)"),
    ("CCOC(=O)c1c(N2CCOCC2)[nH]c(=O)c(C(c2cccs2)c2c(O)c(C(=O)OCC)c(N3CCOCC3)[nH]c2=O)c1O", "EKVX", "> 100 µM (inactive)"),
    ("O=Cc1c2c(cc3c1CC1(C3)Cc3cc4c(c(C=O)c3C1)CCC4)CCC2", "EKVX", "47.3 µM (inactive)"),
    ("CC(C)/C(Cl)=N\\OC(=O)Nc1ccc(S(N)(=O)=O)cc1", "EKVX", "18.5 µM (inactive)"),
    ("O=C1CCc2c(sc3ncnc(Nc4cccc(Br)c4)c23)C1", "EKVX", "2.19 µM (inactive)"),
    ("COc1c(-c2ccccc2)oc2c(CP(=O)(OC)OC)cccc2c1=O", "EKVX", "> 100 µM (inactive)"),
]
